Just for reference, paper PMC3634465 is where these values come from.

# Tested on: LPS-induced NO production in RAW264.7 macrophages
# run description: LPS-induced NO production in macrophages (nitrite, Griess reaction)
# Format: cell-based, murine
# condition: dose 0.625 μg/mL; LPS 100 ng/mL, 24 h; LPS alone 25.3 ± 3.0, control 2.5 ± 0.2
quantity name: NO level (µM)
Write it as a number; the unit µM goes unstated.

In the examples that follow, each entry is paired with its recorded NO level.
{"record smiles": "COc1c(C)cc(O)c2c1OCO2", "NO level / µM": 12.8}
{"record smiles": "C=C(C)c1c(OC)c(O)c(C)c2c1OCO2", "NO level / µM": 14.1}
{"record smiles": "COc1c(C)cc(-c2c(O)c(C)c(OC)c3c2OCO3)c2c1OCO2", "NO level / µM": 16.1}

Task: Short answer please: NO level, LPS-induced NO production in RAW264.7 macrophages, entry COc1cc(C)c(OC)c(O)c1OC
Output: 19.4
